The measurements presented in this section are drawn from patent US7767659B2.

# Tested on: SK-BR-3
# Assay Remarks: Inhibition of cells growth by colorimetric assay (SRB)
# Experimental Setup: read-out: LC50 SK-BR3; SK-BR3; SRB, 48 hours exposure
Below, each entry is listed with its recorded CC50.
Property Measured: CC50 (nM)

Compound: C=CCN1C2Cc3cc(C)c(OC)c(O)c3C1C1C3SCC(NC(C)=O)C(=O)OCC(c4c5c(c(C)c(OC(C)=O)c43)OCO5)N1C2C#N (centres unmarked) [compound 24]
Property Measured: CC50
Test Result: 269
//
Compound: C=CCN1C2Cc3cc(C)c(OC)c(O)c3C1C1C3SCC(NC(=O)CC)C(=O)OCC(c4c5c(c(C)c(OC(C)=O)c43)OCO5)N1C2C#N (centres unmarked) [compound 27]
Property Measured: CC50
Test Result: 1050

---

# Test system: DU-145
# Assay Remarks: Inhibition of cells growth by colorimetric assay (SRB)
# Experimental Setup: Homo sapiens, DU-145, 48 h, read-out: TGI DU145
# Protocol: This form of the assay employs 96 well cell culture microplates of 9 mm diameter (Faircloth, 1988; Mosmann, 1983). Most of the cell lines are obtained from American Type Culture Collection (ATCC) derived from different human cancer types. […] The values for mean +/− SD of data from triplicate wells are calculated. Some parameters for cellular responses can be calculated: GI=growth inhibition, TGI=total growth inhibition (cytostatic effect) and LC=cell killing (cytotoxic effect).
Rule: measured IC (TGI) below 2000 nM gets condition met; anything equal to or greater than 2000 nM gets condition not met.

Molecule: COC1=C(C)C(=O)C2=C(C1=O)[C@@H]1C3[C@@H]4SC[C@]5(NCCc6c5[nH]c5ccccc65)C(=O)OC[C@@H](c5c6c(c(C)c(OC(C)=O)c54)OCO6)N3[C@@H](C#N)[C@H](C2)N1C (some centres unmarked) [compound 23]
Category: condition met
//
Molecule: C=CCN1[C@@H]2c3c(cc(C)c(OC)c3OC(=O)/C=C/c3ccccc3)C[C@H]1[C@H](C#N)N1C2[C@@H]2SCC(NC(=O)C(F)(F)F)C(=O)OC[C@H]1c1c3c(c(C)c(OC(C)=O)c12)OCO3 (some centres unmarked) [compound 29]
Category: condition not met
//
Molecule: C=CCN1[C@@H]2c3c(cc(C)c(OC)c3O)C[C@H]1[C@H](C#N)N1C2[C@@H]2SCC(NC(=O)C(F)(F)F)C(=O)OC[C@H]1c1c3c(c(C)c(OC(C)=O)c12)OCO3 (some centres unmarked) [compound 25]
Category: condition not met
//
Molecule: COc1c(C)cc2c(c1O)[C@@H]1C3[C@@H]4SC[C@]5(NCCc6c5[nH]c5ccccc65)C(=O)OC[C@@H](c5c6c(c(C)c(OC(C)=O)c54)OCO6)N3[C@@H](C#N)[C@H](C2)N1C (some centres unmarked) [compound 22]
Category: condition met
//
Molecule: C=CCOc1c(C)c2c(c3c1CC1[C@H]4c5c(cc(C)c(OC)c5O)C[C@@H]([C@H](C#N)N1[C@H]3CO)N4C)OCO2 (some centres unmarked) [compound 2]
Category: condition not met

---

Below, each entry is listed with its recorded IC (TGI).
# System: SK-BR-3
# Assay Remarks: Inhibition of cells growth by colorimetric assay (SRB)
# Experimental Setup: Homo sapiens, SK-BR-3, 48 h, read-out: SK-BR3 TGI
Property Measured: IC (TGI) (nM)

Compound: COc1cc2c(cc1O)CCN[C@]21C[S+]([O-])[C@@H]2c3c(OC(C)=O)c(C)c4c(c3[C@H](COC1=O)N1C2C2c3c(cc(C)c(OC)c3O)C[C@@H]([C@@H]1O)N2C)OCO4 (some centres unmarked) [Et-759B]
Test Result: 11.6
--
Compound: COc1c(C)cc2c(c1O)[C@H]1N[C@@H](C2)[C@H](O)N2C1[C@@H]1SCC(NC(C)=O)C(=O)OC[C@H]2c2c3c(c(C)c(OC(C)=O)c21)OCO3 (some centres unmarked)
Test Result: 6.65
--
Compound: C=CCN1[C@@H]2c3c(cc(C)c(OC)c3O)C[C@H]1[C@H](C#N)N1C2[C@@H]2SC[C@]3(NCCc4cc(OC(=O)OC(C)(C)C)c(OC)cc43)C(=O)OC[C@H]1c1c3c(c(C)c(OC(=O)CCCCCCC)c12)OCO3 (some centres unmarked)
Test Result: 4000
--
Compound: CCCCCCCC(=O)Oc1c(C)c2c(c3c1[C@H]1SC[C@]4(NCCc5cc(O)c(OC)cc54)C(=O)OC[C@@H]3N3C1[C@@H]1N[C@@H](Cc4cc(C)c(OC)c(O)c41)[C@@H]3C#N)OCO2 (some centres unmarked)
Test Result: 258
--
Compound: COc1ccc2[nH]c3c(c2c1)CCN[C@]31CS[C@@H]2c3c(OC(C)=O)c(C)c4c(c3[C@H](COC1=O)N1C2[C@@H]2N[C@@H](Cc3cc(C)c(OC)c(O)c32)[C@@H]1O)OCO4 (some centres unmarked)
Test Result: 150

---

Below, each entry is listed with its recorded IC (TGI).
# System: IGROV-1
# Assay Remarks: Inhibition of cells growth by colorimetric assay (SRB)
# Experimental Setup: Homo sapiens, IGROV-1, 48 h, read-out: TGI IGROV
# Description: This form of the assay employs 96 well cell culture microplates of 9 mm diameter (Faircloth, 1988; Mosmann, 1983). Most of the cell lines are obtained from American Type Culture Collection (ATCC) derived from different human cancer types. […] The values for mean +/− SD of data from triplicate wells are calculated. Some parameters for cellular responses can be calculated: GI=growth inhibition, TGI=total growth inhibition (cytostatic effect) and LC=cell killing (cytotoxic effect).

Compound: C=CCN1[C@@H]2c3c(cc(C)c(OC)c3OC(=O)/C=C/c3ccccc3)C[C@H]1[C@H](C#N)N1C2[C@@H]2SCC(NC(=O)C(F)(F)F)C(=O)OC[C@H]1c1c3c(c(C)c(OC(C)=O)c12)OCO3 (some centres unmarked) [compound 29]
Measured Target: IGROV-1
IC (TGI) / nM: 11400
//
Compound: C=CCOc1c(C)c2c(c3c1CC1[C@H]4c5c(cc(C)c(OC)c5O)C[C@@H]([C@H](C#N)N1[C@H]3CO)N4C)OCO2 (some centres unmarked) [compound 2]
Measured Target: IGROV-1
IC (TGI) / nM: 2260
//
Compound: COc1c(C)cc2c(c1O)[C@H]1N[C@@H](C2)[C@H](C#N)N2C1[C@@H]1SCC(NC(=O)C(F)(F)F)C(=O)OC[C@H]2c2c3c(c(C)c(OC(C)=O)c21)OCO3 (some centres unmarked) [compound 31]
Measured Target: IGROV-1
IC (TGI) / nM: 1.07
//
Compound: C=CCN1[C@@H]2c3c(cc(C)c(OC)c3O)C[C@H]1[C@H](C#N)N1C2[C@@H]2SCC(NC(=O)CCCCCCCCCCCCCCC)C(=O)OC[C@H]1c1c3c(c(C)c(OC(C)=O)c12)OCO3 (some centres unmarked) [compound 26]
Measured Target: IGROV-1
IC (TGI) / nM: 11600
//
Compound: COc1c(C)cc2c(c1O)[C@@H]1C3[C@@H]4SC[C@]5(NCCc6c5[nH]c5ccccc65)C(=O)OC[C@@H](c5c6c(c(C)c(OC(C)=O)c54)OCO6)N3[C@@H](C#N)[C@H](C2)N1C (some centres unmarked) [compound 22]
Measured Target: IGROV-1
IC (TGI) / nM: 44.6

---

Below, each entry is listed with its recorded IC (TGI).
# Test system: HeLa-APL
# Assay Remarks: Inhibition of cells growth by colorimetric assay (SRB)
# Experimental Setup: Homo sapiens, 48 h, read-out: HELA-APL TGI

Compound: C=CCN1[C@@H]2c3c(cc(C)c(OC)c3O)C[C@H]1[C@H](C#N)N1C2[C@@H]2SC[C@]3(NCCc4cc(OC(=O)OC(C)(C)C)c(OC)cc43)C(=O)OC[C@H]1c1c3c(c(C)c(O)c12)OCO3 (stereo partly drawn) [compound 46]
Measured Target: HeLa-APL
Unit Spec: nM
IC (TGI): 52
--
Compound: C=CCN1[C@@H]2c3c(cc(C)c(OC)c3O)C[C@H]1[C@H](C#N)N1C2[C@@H]2SC[C@]3(NCCc4c3[nH]c3ccc(OC)cc43)C(=O)OC[C@H]1c1c3c(c(C)c(OC(C)=O)c12)OCO3 (stereo partly drawn) [compound 56]
Measured Target: HeLa-APL
Unit Spec: nM
IC (TGI): 58.3
--
Compound: C=CCN1[C@@H]2c3c(cc(C)c(OC)c3O)C[C@H]1[C@H](O)N1C2[C@@H]2SC[C@]3(NCCc4cc(O)c(OC)cc43)C(=O)OC[C@H]1c1c3c(c(C)c(OC(C)=O)c12)OCO3 (stereo partly drawn) [compound 67]
Measured Target: HeLa-APL
Unit Spec: nM
IC (TGI): 64.7

---

# Test system: IGROV-1
# Assay Remarks: Inhibition of cells growth by colorimetric assay (SRB)
# Experimental Setup: Homo sapiens, IGROV-1, 48 h, read-out: LC50 IGROV
# Description: This form of the assay employs 96 well cell culture microplates of 9 mm diameter (Faircloth, 1988; Mosmann, 1983). Most of the cell lines are obtained from American Type Culture Collection (ATCC) derived from different human cancer types. […] The values for mean +/− SD of data from triplicate wells are calculated. Some parameters for cellular responses can be calculated: GI=growth inhibition, TGI=total growth inhibition (cytostatic effect) and LC=cell killing (cytotoxic effect).
Below, each entry is listed with its recorded log10 CC50.
Property Measured: log10 CC50 (log10 of the value in µM)

Compound: COc1c(C)cc2c(c1O)[C@@H]1C3[C@@H]4SC[C@]5(NCCc6c5[nH]c5ccccc65)C(=O)OC[C@@H](c5c6c(c(C)c(OC(C)=O)c54)OCO6)N3[C@@H](C#N)[C@H](C2)N1C (some centres unmarked)
log10 CC50: -0.98
//
Compound: C=CCN1[C@@H]2c3c(cc(C)c(OC)c3O)C[C@H]1[C@H](C#N)N1C2[C@@H]2SCC(NC(=O)C(F)(F)F)C(=O)OC[C@H]1c1c3c(c(C)c(OC(C)=O)c12)OCO3 (some centres unmarked)
log10 CC50: 0.90
//
Compound: C=CCN1[C@@H]2c3c(cc(C)c(OC)c3OC(=O)/C=C/c3ccccc3)C[C@H]1[C@H](C#N)N1C2[C@@H]2SCC(NC(=O)C(F)(F)F)C(=O)OC[C@H]1c1c3c(c(C)c(OC(C)=O)c12)OCO3 (some centres unmarked)
log10 CC50: 1.06
//
Compound: C=CCN1[C@@H]2c3c(cc(C)c(OC)c3O)C[C@H]1[C@H](C#N)N1C2[C@@H]2SCC(NC(=O)CCCCCCCCCCCCCCC)C(=O)OC[C@H]1c1c3c(c(C)c(OC(C)=O)c12)OCO3 (some centres unmarked)
log10 CC50: 1.06
//
Compound: C=CCN1[C@@H]2c3c(cc(C)c(OC)c3O)C[C@H]1[C@H](C#N)N1C2[C@@H]2SC[C@H](NC(=O)c3cc4ccccc4oc3=O)C(=O)OC[C@H]1c1c3c(c(C)c(OC(C)=O)c12)OCO3 (some centres unmarked)
log10 CC50: 0.20
